Molecular target: mature Arabidopsis BIO3-BIO1 (SEQ ID NO: 21) (Arabidopsis thaliana)
Construct: 6xHis (N); thrombin cleavage site (N); made in house; host or cells: E. coli BL21 (DE3) bioA
Sequence (B0F481 with tags, fused parts or gaps): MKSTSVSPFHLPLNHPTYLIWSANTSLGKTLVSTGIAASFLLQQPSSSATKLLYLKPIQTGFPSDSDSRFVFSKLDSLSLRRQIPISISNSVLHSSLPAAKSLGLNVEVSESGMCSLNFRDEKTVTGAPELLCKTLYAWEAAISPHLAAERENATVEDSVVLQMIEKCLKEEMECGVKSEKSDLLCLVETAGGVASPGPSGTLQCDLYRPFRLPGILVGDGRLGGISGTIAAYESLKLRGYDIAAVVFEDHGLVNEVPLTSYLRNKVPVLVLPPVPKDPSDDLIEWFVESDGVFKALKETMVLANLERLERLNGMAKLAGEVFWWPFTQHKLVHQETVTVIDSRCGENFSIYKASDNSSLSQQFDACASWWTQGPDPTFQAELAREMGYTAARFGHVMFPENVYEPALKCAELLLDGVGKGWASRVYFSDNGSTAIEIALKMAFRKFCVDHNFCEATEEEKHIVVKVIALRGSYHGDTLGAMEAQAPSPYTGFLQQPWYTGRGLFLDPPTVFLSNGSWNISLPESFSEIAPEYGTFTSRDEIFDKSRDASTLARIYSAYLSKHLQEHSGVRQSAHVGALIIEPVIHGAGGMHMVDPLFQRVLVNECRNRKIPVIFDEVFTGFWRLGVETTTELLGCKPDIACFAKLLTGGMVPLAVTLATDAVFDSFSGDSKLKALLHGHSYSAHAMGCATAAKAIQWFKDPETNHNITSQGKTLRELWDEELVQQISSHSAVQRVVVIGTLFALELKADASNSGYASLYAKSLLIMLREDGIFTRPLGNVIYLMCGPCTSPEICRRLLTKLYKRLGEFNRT
Assay: DAPA-AT assay with spermidine as amine donor, fluorescent detection of DAPA:o-phthalaldehyde
Type: biochemical
Conditions: inhibitor concentration 5 μM; 10 μM spermidine, 1 μM KAPA, 60 minutes at 20° C.
Method: A pET-24 plasmid containing a DNA sequence encoding BIO3-BIO1 derived from Arabidopsis thaliana, codon-optimised for expression in E. coli, with the predicted N-terminal mitochondrial transit peptide removed and with an N-terminal 6×His-tag and thrombin cleavage site and under control of a T7 promoter (SEQ ID NO:38), was synthesised by Twist Bioscience. The plasmid was expressed in E. coli BL21 (DE3) bioA with 50 μg/mL kanamycin and 25 μg/mL chloramphenicol selection. […]
measureName: inhibition at 5 µM (%)
Give the number; % is assumed, so skip it.

Illustrative cases are given below, each with its answer.
[
  {
    "smilesData": "CCOC(=O)c1nn(-c2ccc3c(c2)OC(F)(F)C(F)(F)O3)c2cccc(C(C)=O)c2c1=O",
    "endpointUnit": "%",
    "inhibition at 5 µM": 84
  },
  {
    "smilesData": "CCn1c(C)c(-c2cc(OC(F)(F)F)ccc2Cl)c(=O)c(C(=O)O)c1-c1ccc(Cl)c(Cl)c1",
    "endpointUnit": "%",
    "inhibition at 5 µM": 95
  },
  {
    "smilesData": "CCn1c(Cn2ccc(C(F)(F)F)n2)cc(=O)c(C(=O)O)c1-c1ccc(Cl)c(Cl)c1",
    "endpointUnit": "%",
    "inhibition at 5 µM": 83
  }
]

Dear colleague, I am looking for the recorded inhibition at 5 µM of the following molecule: "CCn1c(C)c(-c2ccc(F)cc2F)c(=O)c(C(=O)O)c1-c1ccc(Cl)c(Cl)c1"
85

Could you share which inhibition at 5 µM value was measured for "CCn1c(-c2ccc(Cl)c(Cl)c2)c(C(=O)O)c(=O)c2cc(F)ccc21" ?
82

Each recorded value in this set is attributed to patent US20260226527A1.
